Source of measurements: patent US20260015426A1

SYSTEM: T1, hu-M-IL1RAP construct, positions S21-T367 (extracellular domain of the membrane form of human IL1RAP) (human, UniProt Q9NPH3 21-367)
T1 construct: Biotinylated when captured on the Biacore chip
T1 sequence: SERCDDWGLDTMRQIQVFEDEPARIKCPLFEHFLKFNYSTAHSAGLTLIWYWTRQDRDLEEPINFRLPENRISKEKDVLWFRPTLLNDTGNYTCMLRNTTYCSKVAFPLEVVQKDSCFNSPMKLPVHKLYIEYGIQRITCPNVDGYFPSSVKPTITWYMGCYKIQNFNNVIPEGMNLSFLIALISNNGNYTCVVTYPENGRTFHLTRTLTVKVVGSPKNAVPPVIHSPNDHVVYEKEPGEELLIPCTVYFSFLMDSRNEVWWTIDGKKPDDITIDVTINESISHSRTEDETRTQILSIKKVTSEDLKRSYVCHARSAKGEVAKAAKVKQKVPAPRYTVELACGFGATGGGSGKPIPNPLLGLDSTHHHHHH
EXPERIMENTAL_PROTOCOL: SPR, Fab analyte, 25 C
READOUT_LABEL: kon (M⁻¹ s⁻¹)

# BINDER, UNIT_TAG, READOUT_VALUE
data = [
    ("K17 Fab (VL A51Y/W92K) (Fab, V domains shown, Fab with 8xHis tag) VH: EVQLVESGGGLVQPGGSLRLSCAASGFTFSNYAMSWVRQAPGKGLEWVATVTEGGDYNYYLDDVKGRFTISRDNAKNSLYLQMNSLRAEDTAVYYCARDRWPYFFDYWGQGTLVTVSS VL: DIQMTQSPSSLSASVGDRVTITCRASENIYSNLAWYQQKPGKSPKLLVYGYKNLADGVPSRFSGSGSGTDYTLTISSLQPEDFATYYCQHFKTTPRTFGGGTKVEIK", "M⁻¹ s⁻¹", "5.63e+06"),
    ("K18 Fab (VL A51Y/L33G) (Fab, V domains shown, Fab with 8xHis tag) VH: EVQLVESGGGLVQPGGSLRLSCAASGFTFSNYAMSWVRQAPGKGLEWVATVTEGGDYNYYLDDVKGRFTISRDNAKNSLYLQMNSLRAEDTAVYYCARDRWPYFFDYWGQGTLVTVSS VL: DIQMTQSPSSLSASVGDRVTITCRASENIYSNGAWYQQKPGKSPKLLVYGYKNLADGVPSRFSGSGSGTDYTLTISSLQPEDFATYYCQHFWTTPRTFGGGTKVEIK", "M⁻¹ s⁻¹", "6.52e+06"),
    ("H4 Fab (VH F29Q) (Fab, V domains shown, Fab with 8xHis tag) VH: EVQLVESGGGLVQPGGSLRLSCAASGFTQSNYAMSWVRQAPGKGLEWVATVTEGGDYNYYLDDVKGRFTISRDNAKNSLYLQMNSLRAEDTAVYYCARDRWPYFFDYWGQGTLVTVSS VL: DIQMTQSPSSLSASVGDRVTITCRASENIYSNLAWYQQKPGKSPKLLVYGAKNLADGVPSRFSGSGSGTDYTLTISSLQPEDFATYYCQHFWTTPRTFGGGTKVEIK", "M⁻¹ s⁻¹", "5.49e+06"),
    ("H3 Fab (VH V51S) (Fab, V domains shown, Fab with 8xHis tag) VH: EVQLVESGGGLVQPGGSLRLSCAASGFTFSNYAMSWVRQAPGKGLEWVATSTEGGDYNYYLDDVKGRFTISRDNAKNSLYLQMNSLRAEDTAVYYCARDRWPYFFDYWGQGTLVTVSS VL: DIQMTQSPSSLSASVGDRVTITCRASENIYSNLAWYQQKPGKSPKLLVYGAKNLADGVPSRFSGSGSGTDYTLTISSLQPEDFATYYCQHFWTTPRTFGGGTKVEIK", "M⁻¹ s⁻¹", "5.26e+06"),
    ("K15 Fab (VL T94V) (Fab, V domains shown, Fab with 8xHis tag) VH: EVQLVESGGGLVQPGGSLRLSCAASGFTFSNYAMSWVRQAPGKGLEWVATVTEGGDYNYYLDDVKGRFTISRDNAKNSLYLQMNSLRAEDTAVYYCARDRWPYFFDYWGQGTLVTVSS VL: DIQMTQSPSSLSASVGDRVTITCRASENIYSNLAWYQQKPGKSPKLLVYGAKNLADGVPSRFSGSGSGTDYTLTISSLQPEDFATYYCQHFWTVPRTFGGGTKVEIK", "M⁻¹ s⁻¹", "5.67e+06"),
    ("K14 Fab (VL T94I) (Fab, V domains shown, Fab with 8xHis tag) VH: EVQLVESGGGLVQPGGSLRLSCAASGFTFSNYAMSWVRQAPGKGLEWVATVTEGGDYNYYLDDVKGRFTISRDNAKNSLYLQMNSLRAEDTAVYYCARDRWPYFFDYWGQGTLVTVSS VL: DIQMTQSPSSLSASVGDRVTITCRASENIYSNLAWYQQKPGKSPKLLVYGAKNLADGVPSRFSGSGSGTDYTLTISSLQPEDFATYYCQHFWTIPRTFGGGTKVEIK", "M⁻¹ s⁻¹", "5.95e+06"),
    ("K6 Fab (VL Y30W/W92F) (Fab, V domains shown, Fab with 8xHis tag) VH: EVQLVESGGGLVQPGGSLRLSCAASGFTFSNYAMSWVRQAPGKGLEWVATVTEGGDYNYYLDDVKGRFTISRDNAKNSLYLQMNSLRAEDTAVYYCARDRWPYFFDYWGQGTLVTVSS VL: DIQMTQSPSSLSASVGDRVTITCRASENIWSNLAWYQQKPGKSPKLLVYGAKNLADGVPSRFSGSGSGTDYTLTISSLQPEDFATYYCQHFFTTPRTFGGGTKVEIK", "M⁻¹ s⁻¹", "4.25e+06"),
    ("H5 Fab (VH V51S/G54H) (Fab, V domains shown, Fab with 8xHis tag) VH: EVQLVESGGGLVQPGGSLRLSCAASGFTFSNYAMSWVRQAPGKGLEWVATSTEGHDYNYYLDDVKGRFTISRDNAKNSLYLQMNSLRAEDTAVYYCARDRWPYFFDYWGQGTLVTVSS VL: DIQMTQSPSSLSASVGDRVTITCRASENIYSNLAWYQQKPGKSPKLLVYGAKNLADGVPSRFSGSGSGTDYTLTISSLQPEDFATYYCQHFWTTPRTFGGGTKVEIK", "M⁻¹ s⁻¹", "4.71e+06"),
    ("K13 Fab (VL A51Y/W92I) (Fab, V domains shown, Fab with 8xHis tag) VH: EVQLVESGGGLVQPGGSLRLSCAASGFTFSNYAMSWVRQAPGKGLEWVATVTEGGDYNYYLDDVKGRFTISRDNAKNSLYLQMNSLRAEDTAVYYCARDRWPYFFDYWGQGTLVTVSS VL: DIQMTQSPSSLSASVGDRVTITCRASENIYSNLAWYQQKPGKSPKLLVYGYKNLADGVPSRFSGSGSGTDYTLTISSLQPEDFATYYCQHFITTPRTFGGGTKVEIK", "M⁻¹ s⁻¹", "6.15e+06"),
    ("H1 Fab (VH R96A) (Fab, V domains shown, Fab with 8xHis tag) VH: EVQLVESGGGLVQPGGSLRLSCAASGFTFSNYAMSWVRQAPGKGLEWVATVTEGGDYNYYLDDVKGRFTISRDNAKNSLYLQMNSLRAEDTAVYYCARDAWPYFFDYWGQGTLVTVSS VL: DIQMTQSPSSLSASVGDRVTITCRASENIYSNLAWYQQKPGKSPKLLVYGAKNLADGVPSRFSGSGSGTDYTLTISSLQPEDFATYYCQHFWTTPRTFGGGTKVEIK", "M⁻¹ s⁻¹", "1.75e+06"),
]
